EC50 reference
# MEASURED_ON: RNA-binding protein pos-1 (Caenorhabditis elegans)
# Sequence (G5EF15 whole entry, the tested form may be a part): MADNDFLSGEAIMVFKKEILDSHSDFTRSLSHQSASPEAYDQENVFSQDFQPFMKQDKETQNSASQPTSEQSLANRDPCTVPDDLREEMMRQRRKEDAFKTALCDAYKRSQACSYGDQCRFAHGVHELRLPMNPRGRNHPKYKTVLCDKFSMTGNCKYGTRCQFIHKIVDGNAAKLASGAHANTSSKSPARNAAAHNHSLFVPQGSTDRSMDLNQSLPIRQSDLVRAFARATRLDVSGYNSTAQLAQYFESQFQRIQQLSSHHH
# METHOD_DESCRIPTION: disruptors of C. elegans POS-1 RNA interaction – biochemical, fluorescence polarization, dose response (AID 1964);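 note: purified POS-1 fused to maltose binding protein made in E. coli; potency of compounds blocking POS-1 binding to fluorescent RNA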
Calls of active or inactive are those of the source.
PARAMETER_MEASURED: EC50

> print(dat)
                                    molecule  parameter.measured         measured.result
 1  O=C(O)CC(C(=O)O)N1C(=O)/C(=C/C=C/c2ccco2)SC1=S (configuration not stated)                EC50        10.4 µM (active)
 2  NC1=C(c2nc3ccccc3[nH]2)C(=O)CN1c1ccc(CC(=O)O)cc1                EC50  5.25 µM (inconclusive)
 3                Oc1ccc(C2=CSC3=NCCN23)cc1O                EC50        70.6 µM (active)
 4  CCOc1cccc(N2C(=O)/C(=C/c3ccco3)C(=O)NC2=S)c1                EC50   > 300 µM (not active)
 5  COC(=O)c1ccc(COc2ccc(/C=C(\C#N)c3nc4ccccc4[nH]3)cc2OC)o1                EC50   > 300 µM (not active)
 6  COc1ccc(-n2c(NNC(C)=O)nc3sc4c(c3c2=O)CCCC4)cc1                EC50   > 300 µM (not active)
 7  N=c1c(C(=O)NC2CCCC2)cc2c(=O)n3ccccc3nc2n1Cc1ccccc1                EC50        31.6 µM (active)
 8  Cc1c(O)ccc(-c2n[nH]c(C(=O)O)c2-c2nc3ccccc3s2)c1O                EC50        15.3 µM (active)
 9  CC(=O)N1CCc2c(sc(NC(=O)C3CCCCC3)c2C(N)=O)C1                EC50        33.4 µM (active)
10  O=C(O)C(=O)/C(=C\c1ccc(Cl)cc1)c1ccc2ccccc2n1                EC50   > 300 µM (not active)
11  O=C(NN1C(=O)c2ccccc2NC1c1ccccn1)c1ccc([N+](=O)[O-])cc1 (configuration not stated)                EC50         198 µM (active)
12  COC(=O)c1ccccc1-n1cccc1C(=O)NP(=O)(N1CCOCC1)N1CCOCC1                EC50   > 300 µM (not active)

---

# MEASURED_ON: UniProt P29990
# METHOD_DESCRIPTION: flavivirus cap methylation enzyme inhibition – biochemical, confirmation dose response, primary screen (AID 588689)
# Assay type: functional
Activity calls are given as the source filed them.
PARAMETER_MEASURED: IC50

> print(dat)
                                   compound  parameter.measured   measured.result
1  COc1ccc(NC(=S)NNc2ccc(S(=O)(=O)Nc3ccccc3C(=O)O)cc2[N+](=O)[O-])cc1                IC50  15.8 µM (active)
2  Cc1ccc(S(=O)(=O)/N=C2\C=C(NS(=O)(=O)c3ccc(C)cc3)C(=O)c3ccccc32)cc1                IC50  30.6 µM (active)
3  CCC(c1ccccc1)C(CC)c1cc(O)c(O)c(O)c1 (configuration not stated)                IC50  39.4 µM (active)
4  O=C1C=CC2=C3c4cc(O)c(O)cc4CC3(O)COC2=C1O (configuration not stated)                IC50  26.5 µM (active)
5      COc1ccc2nc(-c3ccco3)c(-c3ccco3)nc2c1                IC50  73.9 µM (active)
6     COc1cccc(/C=C2\C(=O)C(=O)c3ccccc32)c1                IC50  12.9 µM (active)
7  CCCOC(=O)c1c(NC(=O)C2C3C=CC(C3)C2C(=O)O)sc2c1CCC(C)C2 (configuration not stated)                IC50  50.3 µM (active)

---

Below is a list of entries, each paired with its recorded AC50 value.
# Test system: INS1
# METHOD_DESCRIPTION: INS-1E survival protection against cytokine death – cell-based, luminescence, retest, dose response (AID 449756);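 note: cell death triggered by IL-1 beta plus TNF-alpha plus IFN-gamma mixture; protective hits raise ATP signal compared with cytokine alone wells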
# Format: functional
# EXPERIMENTAL_PARAMETERS: Rattus norvegicus
Calls of active or inactive are those of the source.
PARAMETER_MEASURED: AC50

> print(dat)
                                   molecule  parameter.measured    measured.result
1      CCOC(=O)C1CCN(Cc2ccc(O)c3ncccc23)CC1                AC50   3.76 µM (active)
2  COC1=CC(=O)[C@]2(C=C1OC)OC[C@@H]1Oc3c(ccc4c3C=CC(C)(C)O4)C(=O)[C@@H]12                AC50  0.671 µM (active)
3         Cc1cc(C)nc(N/N=C/c2cc(Br)ccc2O)n1                AC50   3.35 µM (active)

---

# MEASURED_ON: Corticotropin-releasing factor receptor 2/Corticotropin-releasing factor-binding protein (Homo sapiens, UniProt P24387+Q13324)
# Sequence (Q13324 whole entry): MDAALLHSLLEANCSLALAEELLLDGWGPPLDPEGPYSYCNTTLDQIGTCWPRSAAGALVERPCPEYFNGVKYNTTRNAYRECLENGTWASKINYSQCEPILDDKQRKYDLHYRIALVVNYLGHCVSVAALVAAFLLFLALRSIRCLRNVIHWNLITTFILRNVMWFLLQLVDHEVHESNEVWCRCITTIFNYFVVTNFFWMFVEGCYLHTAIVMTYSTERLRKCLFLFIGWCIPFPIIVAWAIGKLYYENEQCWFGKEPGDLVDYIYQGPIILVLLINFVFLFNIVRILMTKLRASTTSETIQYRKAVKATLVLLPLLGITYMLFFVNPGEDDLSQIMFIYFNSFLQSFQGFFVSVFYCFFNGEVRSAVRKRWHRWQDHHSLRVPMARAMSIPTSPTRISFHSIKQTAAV
# Sequence (P24387 whole entry): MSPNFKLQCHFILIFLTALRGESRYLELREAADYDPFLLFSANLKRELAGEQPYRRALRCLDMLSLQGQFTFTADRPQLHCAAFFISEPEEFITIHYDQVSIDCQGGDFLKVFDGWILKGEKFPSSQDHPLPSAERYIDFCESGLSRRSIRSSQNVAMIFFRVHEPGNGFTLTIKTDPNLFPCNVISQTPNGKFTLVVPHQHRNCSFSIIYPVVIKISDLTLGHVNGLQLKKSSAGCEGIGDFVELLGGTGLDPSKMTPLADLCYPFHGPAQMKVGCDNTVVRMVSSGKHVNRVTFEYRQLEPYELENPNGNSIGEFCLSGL
# METHOD_DESCRIPTION: Dose Response confirmation of uHTS hits for small molecule antagonists of the CRF-binding protein and CRF-R2 receptor complex.
# Assay type: functional
# EXPERIMENTAL_PARAMETERS: read-out: IC50_Mean
The source made the active and inactive calls.
Outcomes: TRUE = active, FALSE = inactive

> print(dat)
                                   compound  label.value
1     c1ccc2c(c1)nnn2-c1ncnc2sc3c(c12)CCCC3        FALSE
2  Cn1c(CCNC(=O)c2ccco2)nc2cc(NC(=O)c3ccco3)ccc21        FALSE
3     O=C(O)c1ccccc1NC(=O)c1ccccc1Nc1ccccc1         TRUE
4  COC(=O)C12CCc3c(ccc4cc(OC)ccc34)C1=CC(=O)C2 (centres undefined)        FALSE

---

The source made the active and inactive calls.
Listed here: molecules with reported IC50 for Estrogen receptor beta (Homo sapiens, UniProt Q92731).
PARAMETER_MEASURED: IC50

> print(dat)
                                   molecule       measured.result
1  O=C(c1cccc(F)c1)N1CCN(C(=O)c2cc3ncc(Br)cn3n2)CC1      11.5 µM (active)
2  NC1=C(c2nc3ccccc3[nH]2)C(=O)CN1c1ccc(CC(=O)O)cc1      25.9 µM (active)
3  CCCOC(=O)c1cc(-c2ccc(/C=C3/C(=O)N(C)C(=O)C(C#N)=C3C)o2)ccc1Cl  > 50 µM (not active)

---

We begin with a simple list: items and their reported AC50.
# MEASURED_ON: UniProt:P05177
# Sequence (P05177 whole entry): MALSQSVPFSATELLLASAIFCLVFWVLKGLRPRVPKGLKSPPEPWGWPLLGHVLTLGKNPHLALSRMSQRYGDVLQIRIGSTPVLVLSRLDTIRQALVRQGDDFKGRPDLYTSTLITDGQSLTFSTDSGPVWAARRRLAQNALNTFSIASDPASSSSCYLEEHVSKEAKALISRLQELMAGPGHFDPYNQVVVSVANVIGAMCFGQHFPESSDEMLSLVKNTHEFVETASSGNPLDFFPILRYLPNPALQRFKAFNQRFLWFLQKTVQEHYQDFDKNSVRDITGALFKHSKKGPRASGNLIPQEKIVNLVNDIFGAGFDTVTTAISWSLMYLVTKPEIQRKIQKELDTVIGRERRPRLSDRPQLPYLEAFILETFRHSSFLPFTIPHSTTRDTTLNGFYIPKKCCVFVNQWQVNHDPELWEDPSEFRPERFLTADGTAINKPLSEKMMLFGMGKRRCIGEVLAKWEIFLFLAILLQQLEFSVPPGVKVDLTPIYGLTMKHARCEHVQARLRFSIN
PARAMETER_MEASURED: AC50

> print(dat)
                                   molecule  parameter.measured         measured.result
1  O=C(O)[C@H]([C@H]1NCCS1)N1C(=O)c2ccccc2C1=O                AC50  5.01 µM (inconclusive)
2  COc1cc(C(=O)NC(=S)Nc2cccc(-c3cc4ccccc4oc3=O)c2)cc(OC)c1OC                AC50  2.82 µM (inconclusive)
3  COc1cc2c(cc1OC)/C(=C/C(=O)N1CCOCC1)NC(C)(C)C2                AC50  15.8 µM (inconclusive)
4        N[C@@H](C(=O)O)c1ccc(P(=O)(O)O)cc1                AC50    20 µM (inconclusive)
5  CC(C)CC(=O)O/N=C1\C(=O)N(c2ccccc2)c2ccccc21                AC50  3.55 µM (inconclusive)
6    CC1=NN=C(c2ccc(N)cc2)c2cc3c(cc2C1)OCO3                AC50  31.6 µM (inconclusive)
7                     COc1cc(Cn2cnnn2)ccc1O                AC50  39.8 µM (inconclusive)
8    Cc1ccc(C(=O)N(CN2CCCC2=O)c2ccccc2)cc1C                AC50  5.01 µM (inconclusive)
